From: PubChem BioAssay (NCI)

assay.info: NCI Yeast Anticancer Drug Screen. Data for the sgs1 mgt1 strain (AID 161);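 further: 0% = growth of cultures given vehicle only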
experimental.parameters: S. cerevisiae sgs1 mgt1 strain, at 50.0 µM, hits give high values
The panel holds about 79,000 compounds, 15% with a hit somewhere; the sample as a whole holds those more often. Activity calls are given as the source filed them. No stated cut-off is given here; in the data, active means growth inhibition above about 70%; inactive means the rest.
Each entry below carries its recorded growth inhibition.

The following compounds have reported results that may help.
{"compound": "OCC1(c2ccccc2)OC1c1ccccc1 (configuration not stated)", "attribute.measured": "growth inhibition", "readout.value": "37.6% (inactive)"}
{"compound": "O=C(O)CN(CC(=O)O)C1CCCCC1N1CC(=O)OC(=O)C1 (configuration not stated)", "attribute.measured": "growth inhibition", "readout.value": "75% (active)"}
{"compound": "CCC(=O)Oc1ccc(-c2ccccc2)cc1Cl", "attribute.measured": "growth inhibition", "readout.value": "97.5% (active)"}
{"compound": "CCOC(=O)c1cccc(C)c1C(=O)c1ccc(C)cc1C", "attribute.measured": "growth inhibition", "readout.value": "47.3% (inactive)"}
{"compound": "OCCCC(Sc1ccccc1)c1ccccc1 (configuration not stated)", "attribute.measured": "growth inhibition", "readout.value": "67.2% (inactive)"}

Reported growth inhibition for Oc1ccccc1C(=NNc1ccccc1)c1ccccc1O : what is it?
94.8% (active)

Reported growth inhibition for C/C(=N\NC(=S)Nc1ccc(C)cc1)c1nc2ncccc2[nH]1 : what is it?
66.3% (inactive)
